# tested on: UniProt P06401
# Sequence (P06401 whole entry): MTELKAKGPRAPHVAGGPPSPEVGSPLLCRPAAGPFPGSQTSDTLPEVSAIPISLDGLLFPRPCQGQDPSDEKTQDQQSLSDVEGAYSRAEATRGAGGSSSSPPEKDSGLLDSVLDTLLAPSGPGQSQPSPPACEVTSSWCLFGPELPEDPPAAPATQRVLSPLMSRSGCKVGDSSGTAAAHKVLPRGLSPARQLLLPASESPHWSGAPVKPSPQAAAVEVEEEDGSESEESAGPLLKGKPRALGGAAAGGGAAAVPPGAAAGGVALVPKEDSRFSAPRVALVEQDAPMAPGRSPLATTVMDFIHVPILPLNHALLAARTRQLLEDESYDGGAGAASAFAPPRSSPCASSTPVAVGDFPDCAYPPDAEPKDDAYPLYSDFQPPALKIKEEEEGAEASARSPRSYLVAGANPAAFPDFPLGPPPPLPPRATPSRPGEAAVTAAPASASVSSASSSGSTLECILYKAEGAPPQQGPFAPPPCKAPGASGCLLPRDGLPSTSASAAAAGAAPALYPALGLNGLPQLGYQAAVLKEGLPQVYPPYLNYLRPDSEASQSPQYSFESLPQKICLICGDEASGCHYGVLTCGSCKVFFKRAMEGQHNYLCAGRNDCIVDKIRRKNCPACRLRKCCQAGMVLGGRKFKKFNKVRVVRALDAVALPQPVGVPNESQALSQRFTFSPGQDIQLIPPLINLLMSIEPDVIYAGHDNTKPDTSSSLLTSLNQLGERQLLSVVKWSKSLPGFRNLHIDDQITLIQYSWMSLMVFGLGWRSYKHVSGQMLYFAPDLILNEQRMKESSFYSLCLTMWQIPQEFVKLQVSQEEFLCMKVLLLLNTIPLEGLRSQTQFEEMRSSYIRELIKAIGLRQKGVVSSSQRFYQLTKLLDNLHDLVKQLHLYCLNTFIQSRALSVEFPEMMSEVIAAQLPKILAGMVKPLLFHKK
# experimental details: Antagonist activity at progesterone receptor in human MCF cells assessed as estradiol-induced receptor response
pIC50: −log10 of the molar value.
measured endpoint: pIC50

Record excerpt, results attached:
CC/C(=C(\c1ccccc1)c1ccc(/C=C/C(=O)O)cc1)c1ccccc1    5.40
C[C@]12CC[C@@H]3c4ccc(O)cc4C[C@@H](CCCCCCCCC[S+]([O-])CCCC(F)(F)C(F)(F)F)[C@H]3[C@@H]1CC[C@@H]2O (some centres undefined)    9.68
CC(C)CN1[C@H](c2ccc(/C=C/C(=O)O)cc2)c2[nH]c3ccccc3c2C[C@H]1C    8.44
C[C@@H]1Cc2c([nH]c3ccc(O)cc23)[C@@H](c2ccc(Cl)cc2)N1CCO    6.04
C[C@@H]1Cc2c([nH]c3ccccc23)[C@@H](c2ccc(Cl)cc2)N1C[C@H](C)C(=O)O    5.68

(P) C[C@@H]1Cc2c([nH]c3ccccc23)[C@@H](c2ccc(Cl)cc2)N1CCC(=O)O
(Q) C[C@@H](CO)CN1[C@H](c2ccc(/C=C/C(=O)O)cc2)c2[nH]c3ccccc3c2C[C@H]1C
Q. // which entry reports the smaller pIC50, P or Q ? Refer to your chosen item by its label in the answer.
A. P
(P: 5.82, Q: 7.30)

(1) C[C@@H]1Cc2c([nH]c3ccccc23)[C@@H](c2ccc(/C=C/C(=O)O)cc2)N1CCO
(2) C[C@@H]1Cc2c([nH]c3ccccc23)[C@@H](c2ccc(/C=C/C(=O)O)cc2)N1CC(C)(C)F
(3) CC/C(=C(\c1ccc(O)cc1)c1ccc(/C=C/C(=O)O)cc1)c1ccccc1
(4) C[C@@H]1Cc2c([nH]c3ccccc23)[C@@H](c2ccc(Cl)cc2)N1CCO
Q. Rank descending by pIC50. Respond with an ordered listing of the labels, as requested.
A. 2, 3, 4, 1
(2: 8.46, 3: 7.92, 4: 6.14, 1: 5.64)

(1) OCCN1CCc2c([nH]c3ccccc23)C1c1ccc(Cl)cc1 (centres undefined)
(2) CC(C)CN1[C@H](c2c(F)cc(/C=C/C(=O)O)cc2F)c2[nH]c3ccccc3c2C[C@H]1C
Q. // which entry reports the smaller pIC50, 1 or 2 ? Refer to your chosen item by its label in the answer.
A. 1
(1: 5.57, 2: 9.08)

Reference source for all entries: BindingDB's records for doi:10.1021/acs.jmedchem.5b00984
